// reported GI50 for each item listed
- Tested on: HCT-15

Reference set, count: 5
- COc1ccccc1-c1c(C#N)c(N)[nH]c(=S)c1C#N: > 100 µM
- O=C(C(=O)n1ccc2ccccc21)c1c[nH]c2ccccc12: > 10 µM
- SC[C@@H]1COC[C@H](CS)S1: > 100 µM
- CC(C)C[C@H](NC(=O)[C@H](Cc1ccccc1)NC(=O)CCc1ccccc1)B(O)O: < 0.01 µM
- COc1ccc(C2OCCN2C)cc1 (stereo unspecified): > 100 µM

Note: attention shifts to another entry.
Qu. Please look up its GI50: N#CC(C#N)=c1ccc(=C2N3CCCC3CN2C23CC4CC(CC(C4)C2)C3)cc1 (stereo unspecified)
Ans. > 100 µM
